- assayed_target: T1, Human Serum Albumin (human, UniProt P02768 25-609)
- T1 construct: also called HSA
- T1 sequence (P02768 25-609 limits assumed): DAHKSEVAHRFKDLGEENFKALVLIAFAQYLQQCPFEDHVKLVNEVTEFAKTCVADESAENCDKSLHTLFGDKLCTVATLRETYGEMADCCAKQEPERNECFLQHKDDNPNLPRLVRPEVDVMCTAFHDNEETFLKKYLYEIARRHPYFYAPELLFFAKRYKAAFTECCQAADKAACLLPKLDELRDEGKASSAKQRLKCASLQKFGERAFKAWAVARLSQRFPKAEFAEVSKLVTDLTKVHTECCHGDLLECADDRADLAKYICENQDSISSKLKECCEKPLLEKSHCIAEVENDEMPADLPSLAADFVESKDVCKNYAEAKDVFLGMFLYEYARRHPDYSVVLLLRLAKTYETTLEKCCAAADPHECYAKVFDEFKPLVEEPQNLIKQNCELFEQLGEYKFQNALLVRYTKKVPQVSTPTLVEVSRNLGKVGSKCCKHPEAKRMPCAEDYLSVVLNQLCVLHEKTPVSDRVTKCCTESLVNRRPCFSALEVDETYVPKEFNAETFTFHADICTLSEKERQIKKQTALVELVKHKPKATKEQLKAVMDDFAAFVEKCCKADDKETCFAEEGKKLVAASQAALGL
- method_summary: SPR Biacore T200, HSA on CM5 chip, ADAPT injected, 1:1 fit
quantity_name: kon (M⁻¹ s⁻¹)
Please give a number only; it is taken to be in M⁻¹ s⁻¹.

Example binders with recorded kon:
[
  {
    "binder": "LVIAKAYAQYELAFYGVSDFYSDLIKKAKTVEGVEALKLHILAALP (designed binder, also called INS_01) [ADAPT variant Insulin_01]",
    "value_observed": 360000
  },
  {
    "binder": "LAVAKAYAKYELAFYGVSDFYNELILKAKTVEGVEALKLHILAALP (designed binder, also called INS_03) [ADAPT variant Insulin_03]",
    "value_observed": 460000
  },
  {
    "binder": "LAIAKAYAQYELSFYGVSDFYRELIVKAKTVEGVEALKLHILAALP (designed binder, also called INS_02) [ADAPT variant Insulin_02]",
    "value_observed": 640000
  },
  {
    "binder": "LRVAKSMAWHELWSYGVSDFYLRLIDKAKTVEGVEALKLHILAALP (designed binder) [ADAPT variant CRP_09]",
    "value_observed": 490000
  },
  {
    "binder": "LHYAKIMAFHELWQYGVSDFYLQLIDKAKTVEGVEALKLHILAALP (designed binder) [ADAPT variant CRP_48]",
    "value_observed": 280000
  },
  {
    "binder": "LSKAKAQAWHELYYYGVSDFYLSLIDKAKTVEGVEALKLHILAALP (designed binder) [ADAPT variant CRP_23]",
    "value_observed": 300000
  },
  {
    "binder": "LMWAKAEAAIELVDYGVSDFYQYLISKAKTVEGVEALKLHILAALP (designed binder) [ADAPT variant REN_40]",
    "value_observed": 120000
  },
  {
    "binder": "LWWAKVSAIKELQAYGVSDFYYMLITKAKTVEGVEALKLHILAALP (designed binder) [ADAPT variant MYDGF_08]",
    "value_observed": 23000
  },
  {
    "binder": "LYVAKDNADWELWQYGVSDFYRSLIWKAKTVEGVEALKLHILAALP (designed binder) [ADAPT variant ANG_16]",
    "value_observed": 29000
  },
  {
    "binder": "LFRAKVWAVWELDQYGVSDFYDELIWKAKTVEGVEALKLHILAALP (designed binder) [ADAPT variant PSA_05]",
    "value_observed": 92000
  }
]

The reported kon of the binder LIWAKAEAVQELFMYGVSDFYYDLIIKAKTVEGVEALKLHILAALP (designed binder, Single domain of about 6 kDa, made in E. coli, purified on HSA resin) [ADAPT variant TNFα_05] was 21000

The reported kon of the binder LKVAKIIAFHELWEYGVSDFYLSLIDKAKTVEGVEALKLHILAALP (designed binder) [ADAPT variant CRP_38] was 410000
